target: PRMT5/MEP50 (Homo sapiens (Human), UniProt O14744); experiment: PRMT5 Biochemical Assay (PRMT5/MEP50 enzyme assay on peptide substrate, 3H-SAM Flashplate)
Sequence (O14744 other isoform, or with tags, fused parts or gaps): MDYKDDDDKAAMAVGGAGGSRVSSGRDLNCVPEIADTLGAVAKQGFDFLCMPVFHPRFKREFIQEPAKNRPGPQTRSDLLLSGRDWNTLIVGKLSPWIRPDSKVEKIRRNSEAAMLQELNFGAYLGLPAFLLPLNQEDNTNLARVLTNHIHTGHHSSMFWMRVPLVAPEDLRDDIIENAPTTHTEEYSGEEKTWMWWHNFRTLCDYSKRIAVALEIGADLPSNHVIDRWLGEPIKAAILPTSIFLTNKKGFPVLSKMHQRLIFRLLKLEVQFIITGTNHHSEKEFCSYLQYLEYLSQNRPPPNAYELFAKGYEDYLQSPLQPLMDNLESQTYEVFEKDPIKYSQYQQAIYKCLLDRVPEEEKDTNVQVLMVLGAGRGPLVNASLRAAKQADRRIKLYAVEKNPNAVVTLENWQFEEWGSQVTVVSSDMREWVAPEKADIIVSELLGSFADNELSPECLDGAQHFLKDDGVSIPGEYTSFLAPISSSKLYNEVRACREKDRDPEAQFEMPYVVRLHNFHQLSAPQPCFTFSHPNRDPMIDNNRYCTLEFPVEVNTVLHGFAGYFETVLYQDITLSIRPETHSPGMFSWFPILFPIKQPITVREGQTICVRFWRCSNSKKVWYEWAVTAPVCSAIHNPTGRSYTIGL
Sequence (Q9BQA1 other isoform, or with tags, fused parts or gaps partner): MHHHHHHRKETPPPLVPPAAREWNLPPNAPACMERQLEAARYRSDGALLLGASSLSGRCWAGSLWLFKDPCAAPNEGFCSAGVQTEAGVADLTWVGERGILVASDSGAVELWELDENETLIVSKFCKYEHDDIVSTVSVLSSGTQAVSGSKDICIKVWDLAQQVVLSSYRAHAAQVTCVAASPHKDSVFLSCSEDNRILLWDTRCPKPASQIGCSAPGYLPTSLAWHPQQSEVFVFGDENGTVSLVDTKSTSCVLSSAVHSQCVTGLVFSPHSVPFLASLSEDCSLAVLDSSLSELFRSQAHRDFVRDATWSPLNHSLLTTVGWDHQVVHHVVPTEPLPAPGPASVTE
pIC50: −log10 of the molar value.
READOUT LABEL: pIC50

Example compounds with recorded pIC50:
Hello, please tell me recorded pIC50 for this one: CN(C)CCNc1cc(C(=O)NC[C@H](O)CN2CCc3ccccc3C2)ncn1 > 7.00

Identify measured pIC50 associated with COc1c(NC2COC2)ncnc1C(=O)NC[C@H](O)CN1CCc2ccccc2C1 5.00 to 6.00

Okay, next one:
Answer with reported pIC50 of O=C(NC[C@H](O)CN1CCc2ccccc2C1)c1ccnc(Nc2ccccn2)c1 > 7.00

* * *

tested on: Z-138 cell line; test: Z-138 Proliferation Assay (Cell Titer Glo, 5 days); format: cell-based; settings: Homo sapiens, 120 h; Z-138 cells, 5 days, Cell Titer Glo; read-out: Proliferation EC50
READOUT LABEL: EC50

Specify EC50 for CN1CCC(Oc2cc(C(=O)NC[C@H](O)CN3CCc4ccccc4C3)cnn2)CC1 [Compound 620] , system Z-138 cell line. 10000 to 50000 nM

Next:
Quote EC50 with test system Z-138 cell line for CC(O)(CNC(=O)c1cc(NC2COC2)ncn1)CN1CCc2ccccc2C1 (stereo not shown) [Compound 646] > 20000 nM

Report EC50 from Z-138 cell line testing of CC(=O)N1CCC(Nc2cc(C(=O)NC[C@H](O)CN3CCc4cccc(C)c4C3)ncn2)CC1 [Compound 664] 101 to 1000 nM

* * *

Each item that follows carries a reported pEC50.
system: Z-138 cell line; test: Z-138 Proliferation Assay (Cell Titer Glo, 5 days); format: cell-based; settings: Homo sapiens, 120 h; Z-138 cells, 5 days, Cell Titer Glo; read-out: Proliferation EC50
pEC50: −log10 of the molar value.

For orientation, consider the following solved cases.
State its pEC50: CC(=O)N(C)[C@H]1C[C@H](Nc2cc(C(=O)NC[C@H](O)CN3CCc4ccccc4C3)ncn2)C1 6.00 to 7.00

Specify measured pEC50 for COCCN1CCN(c2nc(NC3COC3)cc(C(=O)NC[C@H](O)CN3CCc4ccccc4C3)n2)CC1 . > 7.00

Determine its reported pEC50: CC(C)C(=O)N1CCC(Nc2cc(C(=O)NC[C@H](O)CN3CCc4ccccc4C3)ncn2)CC1 > 7.00

Recall and state the measured pEC50 for COc1nc(NC2COC2)cc(C(=O)NC[C@H](O)CN2CCc3ccccc3C2)n1 . 6.00 to 7.00

Identify measured pEC50 associated with CCN1CCN(c2nc(NC3COC3)cc(C(=O)NC[C@H](O)CN3CCc4ccccc4C3)n2)CC1 > 7.00

Give the measured pEC50 for CC(=O)N1CCC(Nc2cc(C(=O)NC[C@H](O)CN3CCc4ccccc4C3)nc(N3CCN(C)CC3)c2)CC1 6.00 to 7.00

Provide one value: measured pEC50 of CC(=O)N1CC(Nc2cc(C(=O)NC[C@H](O)CN3CCc4cc(C)ccc4C3)ncn2)C1 5.00 to 6.00

Identify measured pEC50 corresponding to COC(CNC(=O)c1ccnc(NC2CCN(C(C)=O)CC2)c1)CN1CCc2ccccc2C1 (stereo not drawn) 5.00 to 6.00

Return pEC50 (reported value) for this molecule: CCS(=O)(=O)CCNCC1CN2C=NC(C(=O)NC[C@H](O)CN3CCc4ccccc4C3)=CC2=N1 (stereo partly drawn) < 5.30

Identify measured pEC50 associated with O=C(NC[C@H](O)CN1CCc2ccccc2C1)c1ncnc(NC2COC2)c1Cl 5.00 to 6.00

Others:
Item CN(CCO)c1nc(NC2COC2)cc(C(=O)NC[C@H](O)CN2CCc3ccccc3C2)n1 : provide pEC50 6.00 to 7.00
